Assay: NCI Yeast Anticancer Drug Screen. Data for the wt1 strain (AID 149);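 further: 0% = growth of vehicle-treated wt1 cultures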
Settings: S. cerevisiae wt1 strain (SPY 50644) growth inhibition; at 100.0 µM
The panel holds about 79,000 compounds, 15% with a hit somewhere; the sample as a whole holds those more often. The source made the active and inactive calls. No stated cut-off is given here; in the data, active means growth inhibition above about 70%; inactive means the rest.
Labels: active, inactive

> print(dat)
                           structure.string       cat
1      COc1cc(N(C)C)ccc1/C=C\c1ccnc2ccccc12  inactive
2                   S=c1cn[nH]c2ccc(Br)cc12  inactive
3  CC(=O)N1C(=O)/C(=C\C(=O)c2ccc([N+](=O)[O-])cc2)c2ccccc21    active
4  CN(CC(=O)O)c1ccc(/C=C/c2ccnc3ccccc23)cc1  inactive
5        O=C(/C=C/c1cccc(Br)c1)c1ccc(Cl)cc1  inactive
6            N#C/C(=C/c1c(Cl)cccc1Cl)C(N)=O    active
7              COc1ccc(SCc2cc(OC)ccc2OC)cc1  inactive
8  CC(C)(C)[OH+][O-].[O-]c1ccc(Cl)cc1C=Nc1ccc(Cl)cc1[O-].[O]=[V]  inactive
9                       NCc1c(O)ccc2ccccc12    active

---

The reader will find reported growth inhibition values listed item by item below.
Experiment: NCI Yeast Anticancer Drug Screen. Data for the sgs1 mgt1 strain (AID 161);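 further: 0% = growth of cultures given vehicle only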
Details: S. cerevisiae sgs1 mgt1 strain, at 5.0 µM (retest, dose inferred, filed as 0.5), stronger effect = higher value
The panel holds about 79,000 compounds, 15% with a hit somewhere; the sample as a whole holds those more often. Calls of active or inactive are those of the source. No stated cut-off is given here; in the data, active means growth inhibition above about 70%; inactive means the rest.
MEASURE NAME: growth inhibition

> print(dat)
                                    molecule   value.reported
 1  CN(Cc1cnc2nc(N)nc(N)c2n1)c1ccc(C(=O)NC(CCC(=O)O)C(=O)O)c2ccccc12 (configuration not stated)   27% (inactive)
 2   c1ccc(N2N=C3N(c4ccccc4)C2N3c2ccccc2)cc1  -16% (inactive)
 3     CCCCCCSc1nc(COC(=O)NC)c(COC(=O)NC)n1C    0% (inactive)
 4  CC(C)(C)c1ccc(O)c(C(c2ccc([N+](=O)[O-])cc2)c2cc(C(C)(C)C)ccc2O)c1   29% (inactive)
 5  O=C(Nc1cccc(C(F)(F)F)c1)Oc1ccc(Cl)cc1C(=O)c1ccccc1  -34% (inactive)
 6  COc1ccc(N=N/C(=N\NC(=O)c2cc(Br)ccc2O)c2ccc(N(CCC#N)CCC#N)cc2OC)cc1   -8% (inactive)
 7          S=C1SCN(CCc2ccccc2)CN1CCc1ccccc1    9% (inactive)
 8        COc1ccc(C(C#N)=C2C=CC(=NO)C=C2)cc1   51% (inactive)
 9  CC1=CC2C(C(C)C)CC1C1C(=O)OC(=O)C21 (configuration not stated)  -60% (inactive)
10    COc1ccc(/C(C#N)=C/c2ccc(OC)c(OC)c2)cc1  -15% (inactive)
11  Nc1cc(S(N)(=O)=O)ccc1SSc1ccc(S(N)(=O)=O)cc1N   -7% (inactive)
12                    CCCCCC(=O)c1ccc(O)cc1O   -5% (inactive)
13                 CSc1s[s+]c(SC)c1-c1ccccc1   -6% (inactive)
14     CCNc1ccc2c(c1)C(=O)N(OS(C)(=O)=O)C2=O    3% (inactive)
15  CN(NC(=O)/C(=C/c1ccc(O)cc1)NC(=O)c1ccccc1)c1ccnc2cc(Cl)ccc12    9% (inactive)
16    COC(=O)c1cccc(C)c1C(=O)c1c(C)cc(C)cc1C   -7% (inactive)
17  O=C1OC2C(O)COC2(OCc2c[nH]c3ccccc23)C1O (configuration not stated) (tested in a mixture with another compound)   -3% (inactive)
18  Cc1ccccc1NC(=O)Cc1csc(N/N=C2\NC(=O)/C(=C/c3cccc([N+](=O)[O-])c3)S2)n1   -1% (inactive)
19                  Oc1ccc(Br)cc1C=NC1CCCCC1   -2% (inactive)
20  CC1CCC2(C(=O)O)CCC3(C)C(=CCC4C5(C)CC(O)C(O)C(C)(CO)C5C(O)CC43C)C2C1C (configuration not stated)   16% (inactive)
21                   Oc1ccc(C=Nc2ccccc2O)cc1   15% (inactive)
22                CN(C)c1ccc(N=Nc2ccccn2)cc1   -1% (inactive)
23            O=C(/C=N/O)Nc1cc(Cl)c(Cl)cc1Cl  -12% (inactive)
24  Nc1ccc(S(=O)(=O)Nc2ccc(Nc3c4ccccc4nc4ccccc34)cc2)cc1   -7% (inactive)
25             OB(O)c1ccccc1C#Cc1ccccc1B(O)O    4% (inactive)
26  O=S1(=O)c2ccccc2N=C(c2ccccc2Cl)CC1c1ccc(F)cc1 (configuration not stated)   -5% (inactive)
27                  CCCCCCCCCCCc1nc(N)n[nH]1  -66% (inactive)
28  CN(CC(=O)O)c1ccc(/C=C/c2ccnc3ccccc23)cc1    5% (inactive)
29               N#C/C(=C\c1ccccc1)c1ccccc1F   -8% (inactive)
30    O=[N+]([O-])/C(C(Cl)=C(Cl)Cl)=C1/OCCS1   40% (inactive)
31  O=C1c2c(O)cccc2-c2nn(CCNCCO)c3ccc(NCCNCCO)c1c23    1% (inactive)
32        COC(=O)c1oc([N+](=O)[O-])c(Cl)c1Cl   36% (inactive)

---

Test: NCI Yeast Anticancer Drug Screen. Data for the mec2-1 strain (AID 157)
Conditions: S. cerevisiae mec2-1 strain, at 33.0 µM
Compounds without any hit were thinned out: in the full panel of roughly 79,000, 15% have a hit. The source made the active and inactive calls. Cut-off read from the data, not from the text of the source: active = growth inhibition above about 70%; inactive = the rest.
Outcomes: active, inactive

> print(dat)
                                    compound       cat
 1              NC(=O)N1c2ccccc2C=Cc2ccccc21  inactive
 2  Clc1c(Cl)c(Cl)c2c(nnn2C2CCCO2)c1Cl (stereo not drawn)  inactive
 3  O=C(NCCCCCN1CCC2(CCCCC2)CC1)C(C1CCCCC1)C1CCCCC1    active
 4                   S=c1cn[nH]c2ccc(Br)cc12  inactive
 5               Cn1c2nc3ccccc3c-2nc2ccccc21    active
 6  NP1(Oc2ccc(F)cc2)=NP(N)(Oc2ccc(F)cc2)=NP(Oc2ccc(F)cc2)(Oc2ccc(F)cc2)=N1 (stereo not drawn)  inactive
 7  Nc1cc(S(N)(=O)=O)ccc1SSc1ccc(S(N)(=O)=O)cc1N  inactive
 8  CC(=O)N1C(=O)/C(=C\C(=O)c2ccc(Cl)cc2)c2ccccc21    active
 9  COc1ccc(/C=C(\NC(=O)c2ccccc2)C(=O)NN(C)c2ccnc3cc(Cl)ccc23)cc1OC  inactive
10                     CC(C)c1cccc(O)c(=O)c1  inactive
11  N#C/C(=C1C=C(Br)/C(=N\O)C=C\1Cl)c1cccc2ccccc12    active
12                    O=Nc1ccc(Nc2ccccc2)cc1    active
13             CCCc1[nH]nc(C(N)=O)c1N=NN(C)C  inactive
14    Cc1cc(N=C2C=CC(=[N+](C)C)C=C2)c(N)cc1N  inactive
15            O=c1[nH]c2ccccc2c2nc3ccccc3n12  inactive
16                    NNC(=S)Nc1cccc2ccccc12  inactive
17  S=C(S)NCC1CCC(CNC(=S)S)CC1 (stereo not drawn)  inactive
18  Cc1ccc(Nc2c3c(c(C#N)c4nc5ccccc5n24)CCCC3)cc1  inactive
19       CCOC(=O)CNC(=O)c1[nH]cnc1/N=N/N(C)C  inactive
20      O=Nn1c2ccccc2c2cc([N+](=O)[O-])ccc21  inactive
21       COc1cc(CNc2ccc(C(C)C)cc2)cc(OC)c1OC  inactive
22                      O=NN(CCCl)C(=O)NCCCl  inactive
23                       NCc1c(O)ccc2ccccc12  inactive
24  CC[C@@]1(OC(=O)CCC(=O)O)C(=O)OCc2c1cc1n(c2=O)Cc2cc3ccccc3nc2-1    active
25            CCC(=O)Oc1ccc(/C=N/NC(N)=S)nc1  inactive
26        O=C(/C=C/c1cccc(Br)c1)c1ccc(Cl)cc1  inactive
27              O=C(NC(=S)Nc1ccccn1)c1ccccc1  inactive
28                      NNC(=S)Nc1cccc(Cl)c1  inactive
29  O=C1c2ccccc2C(=O)c2cc(S(=O)(=O)Nc3ccccc3)ccc21  inactive
30           OCCN(CCO)c1ccc2c(c1)Cc1ccccc1-2  inactive
31  CCCCCCCCCCCCCC(=O)OC(C)CCC1CCCO1 (stereo not drawn)  inactive
32           Cc1cc(O)c2c(c1)C(=O)C=C(Br)C2=O    active
33  O=C(CCc1ccccc1)ON1C(=S)C(c2ccccc2)(c2ccccc2)N=C1Sc1ccccc1  inactive
34  Clc1cc(Cc2ccc(N=C/C=C/c3ccccc3)c(Cl)c2)ccc1N=C/C=C\c1ccccc1  inactive
35  NC(N)=NCCCS(=O)(=O)Nc1ccc(Nc2c3ccccc3nc3cc([N+](=O)[O-])ccc23)cc1  inactive
36  O=C1C(Cl)=C(Cl)C(Cl)(Cl)C(Cl)C1(Cl)Cl (stereo not drawn)    active
37                Cc1cc(Cl)nc2nc(Cl)c(N)cc12  inactive
38     CC(=O)C1=C(C)O/C(=C/c2cccc(Cl)c2)C1=O  inactive
39                ClCCn1c(CCl)nc2ccc(Cl)cc21    active
40       CC(C)(O)c1ccccc1C(c1ccccc1)c1ccccc1  inactive
41       O=C(CNS(=O)(=O)Cc1ccccc1)NNc1ccccc1  inactive
42                C=C1N(C)c2ccc(Cl)cc2C1(C)C  inactive
43  COC(=O)CSc1nnc(CSc2ccc(Cl)cc2)n1-c1ccccc1  inactive
